Reference source: the supplement of paper PMC6555819

Tested on: RARa homodimer (NR concentration 270 nM)
Test: PBM binding z-score (relative to random genomic background probes); higher = stronger binding; sequences stand for … in GC…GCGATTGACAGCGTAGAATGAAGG
Grouping rule (PBM binding z-score): zone 1 = under -0.6, zone 2 = from -0.6 up to 0.3, zone 3 = 0.3 and over

Field: example entries. Status: answers known.
> print(dat)
                              residues                            assayed.system   label
 1  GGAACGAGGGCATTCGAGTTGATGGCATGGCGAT  RARa homodimer (NR concentration 270 nM)  zone 1
 2  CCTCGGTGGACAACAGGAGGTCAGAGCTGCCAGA  RARa homodimer (NR concentration 270 nM)  zone 3
 3  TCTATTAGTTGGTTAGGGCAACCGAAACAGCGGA  RARa homodimer (NR concentration 270 nM)  zone 3
 4  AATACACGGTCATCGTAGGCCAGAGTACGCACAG  RARa homodimer (NR concentration 270 nM)  zone 3
 5  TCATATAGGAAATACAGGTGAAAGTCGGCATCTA  RARa homodimer (NR concentration 270 nM)  zone 3
 6  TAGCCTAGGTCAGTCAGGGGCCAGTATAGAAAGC  RARa homodimer (NR concentration 270 nM)  zone 1
 7  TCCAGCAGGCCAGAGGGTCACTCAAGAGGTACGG  RARa homodimer (NR concentration 270 nM)  zone 2
 8  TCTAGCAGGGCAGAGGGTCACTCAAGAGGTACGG  RARa homodimer (NR concentration 270 nM)  zone 1
 9  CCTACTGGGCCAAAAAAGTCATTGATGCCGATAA  RARa homodimer (NR concentration 270 nM)  zone 2
10  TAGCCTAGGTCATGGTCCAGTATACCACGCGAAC  RARa homodimer (NR concentration 270 nM)  zone 2

# bin lookup: classify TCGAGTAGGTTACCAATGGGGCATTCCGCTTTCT by its PBM binding z-score
zone 1

# bin lookup: classify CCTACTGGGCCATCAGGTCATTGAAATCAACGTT by its PBM binding z-score
zone 2
